# system_tested: T1, human Gro-beta (human, UniProt P19875 35-107)
# T1 sequence (looked up): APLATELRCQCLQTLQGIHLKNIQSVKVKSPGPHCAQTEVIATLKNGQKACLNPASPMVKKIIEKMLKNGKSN
# procedure_text: cell-based or functional assay
Could you please report measured FLIPR IC50 for the items listed next?
Report only the number, with the unit µg/mL understood.

# input binder: 1L132.23 (antibody, IgG1, V domains shown) VH: QVQLQQPGAELVKPGASVKVSCKASGYTFTNYWMHWVRQRPGQGLEWIGRIHPSDNDTNYNQKFKDKATLTVDKSSNTAYMQLSSLTSEDSAVYYCAIGVYDGFIGLWGQGTSVTVSS VL: DIQMTQSPASQSASLGESVTITCLASQTIGTWLAWYQQKPGKSPQLLIYAATRLADGVPSRFSGSGSGTKFSFKISSLQAEDFVSYYCQQLSSTPWTFGGGTKLEIK ; wanted: its FLIPR IC50
0.69

# input binder: 5D2.2D10 (antibody, V domains shown) VH: QIQLVQSGPELKKPGETVKISCKASGYIFTAYGMSWVKQAPGKGLKWMGWINTYSGVPTYADHFKGRFDFSLETSASTAYLQINNLKNEDTATYFCARPTVVDPWYFDVWGTGTTVTVSS VL: DIQMTQSPASLSVSVGETVTITCRASENIYSNLAWYQQKQGKSPQLLVYAATNLGDGVPSRFSGSGSGTQYSLKINSLQSEDFGSYYCQHFWTTPWTFGGGTKLEIK ; wanted: its FLIPR IC50
77.4
